Multiple publications report pKi for Adenosine receptor A2a (Homo sapiens, UniProt P29274); what follows is a combined list.
Lab note: report pKi as minus log10 of the concentration in molar units, number only.

### Prompt # value lookup — system Adenosine receptor A2a (Homo sapiens, UniProt P29274), readout pKi, item CCCn1c(=O)c2[nH]c(-c3ccc(OCC(=O)Nc4ccc(OC)cc4)cc3)c(Cl)c2n(CCC)c1=O
### Response 7.35

### Prompt # value lookup — system Adenosine receptor A2a (Homo sapiens, UniProt P29274), readout pKi, item CCOC(=O)c1cnc(NCc2ccc(OC)cc2)n2nc(-c3ccco3)nc12
### Response 6.85

### Prompt # value lookup — system Adenosine receptor A2a (Homo sapiens, UniProt P29274), readout pKi, item S=c1sc2c(ncn3nc(-c4ccco4)nc23)n1-c1ccccc1
### Response 8.96

### Prompt # value lookup — system Adenosine receptor A2a (Homo sapiens, UniProt P29274), readout pKi, item COc1c(C(C)(C)C)cc(-c2cn3c(=O)n(-c4ccccc4)nc3c(N)n2)cc1C(C)(C)C
### Response 6.85

### Prompt # value lookup — system Adenosine receptor A2a (Homo sapiens, UniProt P29274), readout pKi, item COc1ccc(C(=O)Nc2ccc(-c3cn4c(=O)n(-c5ccccc5)nc4c(N)n3)cc2)cc1OC
### Response 7.69

### Prompt # value lookup — system Adenosine receptor A2a (Homo sapiens, UniProt P29274), readout pKi, item Nc1nc(-c2ccc(S(N)(=O)=O)cc2)cn2c(=O)n(-c3ccccc3)nc12
### Response 6.07

### Prompt # value lookup — system Adenosine receptor A2a (Homo sapiens, UniProt P29274), readout pKi, item O=c1[nH]nc(NC2CCCC2)c2nnn(Cc3cccs3)c12
### Response 6.05

### Prompt # value lookup — system Adenosine receptor A2a (Homo sapiens, UniProt P29274), readout pKi, item CCCn1c(=O)c2[nH]c(-c3ccc([N+](=O)[O-])cc3)c(O)c2n(CCC)c1=O
### Response 6.84

### Prompt # value lookup — system Adenosine receptor A2a (Homo sapiens, UniProt P29274), readout pKi, item Cn1c(=O)c2[nH]c(-c3ccc(OCC(=O)N4CCN(c5ccc(Cl)cc5)CC4)cc3)cc2n(C)c1=O
### Response 6.40

### Prompt # value lookup — system Adenosine receptor A2a (Homo sapiens, UniProt P29274), readout pKi, item CCn1nnc([C@H]2O[C@@H](n3cnc4c(N)nc(N[C@H](CO)Cc5ccc([N+](=O)[O-])cc5)nc43)[C@H](O)[C@@H]2O)n1
### Response 7.32

### Prompt # value lookup — system Adenosine receptor A2a (Homo sapiens, UniProt P29274), readout pKi, item Nc1nc(-c2ccc(NC(=O)CCNC(=O)c3cccc(S(N)(=O)=O)c3)cc2)cn2c(=O)n(-c3ccccc3)nc12
### Response 8.04

### Prompt # value lookup — system Adenosine receptor A2a (Homo sapiens, UniProt P29274), readout pKi, item Cc1[nH]c2nc(-c3ccccc3)nc(NCc3ccncc3)c2c1C
### Response 6.09

### Prompt # value lookup — system Adenosine receptor A2a (Homo sapiens, UniProt P29274), readout pKi, item COc1ccccc1CCCc1nc(N)c2nn(-c3ccccc3)cc2n1
### Response 6.82
